Source of measurements: patent US5935990A

- Test system: COX-1
- testDescription: Assay for COX-1 activity in vitro (PGE2 formed, ELISA)
- Assay type: biochemical, human or murine
- conditionLabel: recombinant COX-1 from SF9 insect cells, arachidonic acid 10 μM, pH 8.0, 10-20 min pre-incubation
Known IC50 of a selection of compounds

Q) # returns recorded IC50 (system: COX-1) for CS(=O)(=O)c1ccc(-c2cccn2-c2ccc(F)cc2)cc1 [Example 10]
A) > 100 µM

Q) # returns recorded IC50 (system: COX-1) for Cc1c(COc2cccc(Cl)c2)cc(-c2ccc(S(C)(=O)=O)cc2)n1-c1ccc(F)cc1 [Example 25]
A) > 100 µM

Q) # returns recorded IC50 (system: COX-1) for NS(=O)(=O)c1ccc(-n2cccc2-c2ccc(F)cc2)cc1 [Example 9]
A) 10.4 µM

Q) # returns recorded IC50 (system: COX-1) for Cc1c(COc2ccc(Cl)cc2)cc(-c2ccc(S(C)(=O)=O)cc2)n1-c1ccc(F)cc1 [Example 26]
A) > 100 µM

Q) # returns recorded IC50 (system: COX-1) for Cc1ccc(-c2ccc(S(C)(=O)=O)cc2)n1C1CCCCC1 [Example 7]
A) 62.4 µM

Q) # returns recorded IC50 (system: COX-1) for Cc1c(S(=O)(=O)C(F)(F)F)cc(-c2ccc(S(C)(=O)=O)cc2)n1-c1ccc(F)cc1 [Example 16]
A) > 100 µM

Q) # returns recorded IC50 (system: COX-1) for Cc1ccc(-c2ccc(S(C)(=O)=O)cc2)n1-c1ccc(F)cc1 [Example 1]
A) > 100 µM
